# Tested on: MDA-MB-231 breast
# RUN DESCRIPTION: NCI tumour cell line growth inhibition, 48 h
READOUT TYPE: TGI

>>> observed("Cc1csc2nc3[nH]ncc3c(=O)n12")
"> 100 µM"
>>> observed("CN(C)c1ccc(N=Nc2cccc3ncccc23)cc1")
"> 100 µM"
>>> observed("O=C1C(=C(C(=O)c2ccccc2)C(=O)c2ccccc2)OC(c2ccccc2)=C1C(=O)c1ccccc1")
"32.2 µM"
>>> observed("COc1ccc2c(c1)N=C1CSC(c3c(Cl)cccc3[N+](=O)[O-])N1C2 (centres undefined)")
"> 100 µM"
>>> observed("CNc1nc(N(C)C)nc(N(C)C)n1")
"2640 µM"
>>> observed("O=Cc1ccc(O)c2ncccc12")
"> 100 µM"
>>> observed("COc1cc(-c2oc3c(OC)c(O)c(OC)c(O)c3c(=O)c2OC)ccc1O")
"> 100 µM"
>>> observed("COc1ccc2c(c1)CCCN1Cc3ccccc3CC21 (centres undefined)")
"> 100 µM"
>>> observed("CC(=O)OCC1OC(n2c(C)c(C(C)=O)c(-c3cccc4ccccc34)c(C#N)c2=S)C(OC(C)=O)C(OC(C)=O)C1OC(C)=O (centres undefined)")
"> 100 µM"

* * *

# Tested on: RPMI-8226 leukemia
# RUN DESCRIPTION: NCI tumour cell line growth inhibition, 48 h
READOUT TYPE: TGI

>>> observed("ClCc1ccc2ccc3ccc(CCl)nc3c2n1")
"13.1 µM"
>>> observed("COc1ccc2c(c1)CC1c3c(cc4c(c3-2)OCO4)CCN1C (stereo unspecified)")
"64.2 µM"
>>> observed("Clc1ccc(-c2nc3ccc(C45CC6CC(CC(C6)C4)C5)cc3[nH]2)cc1")
"> 100 µM"
>>> observed("Cc1ccc(C2=C(c3ccccc3)C(Br)(c3ccccc3)C(c3ccccc3)=C2c2ccc(C)cc2)cc1")
"> 100 µM"
>>> observed("N#CN1CCC=C(c2cc3ccccc3[nH]2)C1")
"> 448 µM"
>>> observed("CC(=O)c1c[nH]cc1CO")
"> 10 µM"
>>> observed("Clc1ccc(-c2nnc(C34CC5CC(CC(C5)C3)C4)o2)cc1")
"> 100 µM"
>>> observed("Cc1cc(C)c(NS(=O)c2cccc(Cl)c2)c(C)c1 (stereo unspecified)")
"> 100 µM"
>>> observed("c1ccc2c3c([nH]c2c1)C1(CCCCC1)c1c([nH]c2ccccc12)C31CCCCC1")
"> 100 µM"
>>> observed("COc1cccc2c(=O)c3c(sc12)c(NCCN(C)C)nc1ccccc13")
"3.17 µM"
>>> observed("O=C(CCCCCCC(=O)Nc1ccc2c(c1)/C(=C/c1ccc[nH]1)C(=O)N2)NO")
"> 100 µM"

* * *

# Test system: NCI-H226 lung
# RUN DESCRIPTION: NCI tumour cell line growth inhibition, 48 h
List of TGI values.
READOUT TYPE: TGI

>>> observed("OC(CNC1CCCC1)Cn1c2ccccc2c2ccccc21 (stereo not given)")
"> 100 µM"
>>> observed("COc1cc(/C=C2\\CC3C4CC[C@H]5C[C@@H](O)CC[C@]5(C)C4CC[C@]3(C)C2=O)cc(OC)c1OC (stereo not given in full)")
"86.1 µM"
>>> observed("O=[N+]([O-])c1ccc(NC(=S)Nc2ccccn2)cc1")
"> 64.2 µM"
>>> observed("O=C(OC(/C=C/c1ccccc1)P1(=O)N(Cc2ccccc2)[C@@H]2CCCC[C@H]2N1Cc1ccccc1)c1ccccc1 (stereo not given in full)")
"> 100 µM"
>>> observed("CS(=O)(=O)Nc1cc(-c2ccc3ncnc(Nc4ccc5c(cnn5Cc5ccccc5F)c4)c3c2)cnc1Cl")
"11.3 µM"

Entry source: PubChem BioAssay (NCI)
